target: Intercellular adhesion molecule-1 (ICAM-1) on JY cells (UniProt P05362 28-532, limits assumed); assay: cell-based or functional assay
Sequence (P05362 28-532 limits assumed): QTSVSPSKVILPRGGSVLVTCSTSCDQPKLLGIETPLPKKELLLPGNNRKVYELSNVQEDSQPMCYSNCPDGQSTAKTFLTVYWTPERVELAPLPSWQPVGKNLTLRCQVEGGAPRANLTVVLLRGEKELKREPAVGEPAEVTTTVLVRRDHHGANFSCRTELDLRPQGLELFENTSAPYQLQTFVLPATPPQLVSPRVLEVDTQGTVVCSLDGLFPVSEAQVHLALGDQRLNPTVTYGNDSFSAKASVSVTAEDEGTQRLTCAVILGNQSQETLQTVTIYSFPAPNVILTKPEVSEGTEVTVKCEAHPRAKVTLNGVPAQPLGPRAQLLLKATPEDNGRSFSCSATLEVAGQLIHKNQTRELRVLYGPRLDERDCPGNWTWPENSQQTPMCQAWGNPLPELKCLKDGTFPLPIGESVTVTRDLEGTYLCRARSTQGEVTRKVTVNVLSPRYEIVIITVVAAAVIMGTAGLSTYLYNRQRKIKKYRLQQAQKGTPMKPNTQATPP
Bridge positions count the residues as written; N and C are the ends. Ends that are not written are not given here.
Parameter: IC50, inhibition of JY cell aggregation, 360 minute incubation. Scope: all listed entries.

Binder | Value reported
CLLRMRSVC (disulfide 1-9) [IP02-V8] | ~700 µM

input: Answer with reported IC50, inhibition of JY cell aggregation, 360 minute incubation of CLLRMRSIC (disulfide 1-9) [IP01 (inhibitory peptide-01)]
output: 580 µM

input: Answer with reported IC50, inhibition of JY cell aggregation, 360 minute incubation of CLIRMRSAC (disulfide 1-9) [IP02-I3]
output: ~700 µM

input: Answer with reported IC50, inhibition of JY cell aggregation, 360 minute incubation of CLLRMRSLC (disulfide 1-9) [IP02-L8]
output: > 1000 µM
